# Tested on: A2780
# METHOD: 50% growth inhibition of A2780 (Human ovarian carcinoma) cell line compared with untreated control cells
# Format: functional
Reported GI50 by item:
METRIC: GI50 (µM)

compound="COC(=O)c1cccc(NC(=O)C2C(C(=O)O)[C@@H]3C=C[C@H]2O3)c1 (some centres undefined)" readout_units=µM endpoint_value=97
compound="CN.CNC(=O)C1C(C(=O)O)[C@@H]2C=C[C@H]1O2 (some centres undefined)" readout_units=µM endpoint_value=88
compound="CC(=O)NC[C@@]12C=C[C@@H](O1)C1C(=O)OC(=O)[C@H]12 (some centres undefined)" readout_units=µM endpoint_value=98
compound="O=C(O)C1C(C(=O)OCc2ccccc2)[C@H]2CC[C@@H]1O2 (single isomer, unassigned)" readout_units=µM endpoint_value=81
compound="N#CC[C@]12C=C[C@H](O1)[C@@H]1C(=O)OC(=O)C12 (some centres undefined)" readout_units=µM endpoint_value=85
compound="COC(=O)C1C(C(=O)Nc2ccc(Cl)cc2)[C@H]2CC[C@@H]1O2 (some centres undefined)" readout_units=µM endpoint_value=98
compound="CCOC(=O)c1ccc(NC(=O)C2C(C(=O)O)[C@@H]3C=C[C@H]2O3)cc1 (some centres undefined)" readout_units=µM endpoint_value=83
compound="COC(=O)c1cccc(NC(=O)C2C(C(=O)O)[C@@H]3CC[C@H]2O3)c1 (some centres undefined)" readout_units=µM endpoint_value=90
compound="O=C(O)c1cccc(NC(=O)C2C(C(=O)O)[C@@H]3C=C[C@H]2O3)c1 (some centres undefined)" readout_units=µM endpoint_value=82
